Each record here notes measured normalized RNA/DNA level with ligand (log10).
B1: library; a variant is named by its letters at N, in order (parent)
chain: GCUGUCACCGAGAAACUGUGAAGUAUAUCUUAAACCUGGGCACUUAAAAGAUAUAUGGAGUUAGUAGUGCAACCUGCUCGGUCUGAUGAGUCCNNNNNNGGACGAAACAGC

Variants of: B1
protocol.details: normalized RNA/DNA level with ligand (relative to sTRSVctl = 100) (log10 (% of sTRSVctl)); HEK293T; ligand: cyclic di-GMP (c-di-GMP-II aptamer); ligand concentration (+) RNA-Seq: 1 mM; higher = less ribozyme self-cleavage, higher mRNA level
cond: reporter: mCherry (pCS4076), ligand present: yes
recorded.metric: normalized RNA/DNA level with ligand (log10)

GCAUGG	1.67
CUGCCG	1.92
GGUGGA	1.7
AAGAAA	1.56
GUCGUG	1.79
GCCGAG	1.72
AUUCCU	1.86
GUUACC	1.9
UGCGAA	1.78
UACGCU	1.86
GGUAAU	1.72
GCUACC	1.84
GUGCGC	1.88
CCGAUU	1.73
UCGCAA	1.69
CUAGAA	1.6
GCAUCG	1.76
AAUCUU	1.86
GCGAUG	1.79
ACGAAU	1.53
CAAUAU	1.67
GCUGAC	1.67
ACAUUG	1.69
UCCUUA	1.83
UACUUA	1.84
AGCCCC	1.92
AAUUGA	1.72
GCCCCC	1.88
AGCUAU	1.84
CACUCG	1.87
GGGCAC	1.89
CGCCUA	1.58
AUUCUU	1.88
GAGUAG	1.89
UCAGGU	1.76
AUAUGA	1.63
ACGUGA	1.54
CUACCG	1.91
CAACUA	1.6
UAGGUC	1.81
CCGGCU	1.89
AUGAAG	1.67
GUAGGU	1.8
CGACAC	1.76
GCUGUC	1.72
CACUGG	1.81
AGGUGU	1.77
CAAUGC	1.83
UCCCAG	1.9
UAGCAG	1.85
GGUAAC	1.85
CCCUGC	1.9
GCGUAU	1.72
GUGAGA	1.6
CUGAGA	1.69
CUCAUA	1.65
AAGGAA	1.51
GUACAG	1.78
CAACCC	1.82
CUUAUU	1.71
UUAAAG	1.81
CCUGUU	1.86
CACACG	1.83
UCUGCC	1.91
CCCAGC	1.84
UUACCU	1.86
UAGUUG	1.81
AACUCG	1.82
UCUCAG	1.89
UUGUCA	1.9
AGGUAG	1.66
GAUCCC	1.89
UGCCGU	1.83
GAACCU	1.86
ACUUCC	1.89
AUCUCU	1.86
AUAUAC	1.82
UAGCAA	1.84
CUCUUA	1.65
CUCGAA	1.6
UGUCCU	1.89
UAGAAC	1.82
AUGCCU	1.87
UAGACU	1.85
UUUUAU	1.87
AGCAGU	1.84
ACCCUU	1.78
AUACUC	1.87
UUUAGU	1.87
AGGCGC	1.86
AAUGUU	1.82
